Each recorded value in this set is attributed to BigSolDB 2.1.

# Condition Notes: in n-butanol, 318.15 K

Entry Smiles: CCCCCCCCCCCC[N+](C)(C)CCOc1ccccc1.[Br-]
solubility (mole fraction): 0.306

====

# Condition Notes: in NMP, 323.15 K
Measure: solubility (mole fraction)

Entry Smiles: CCCCCCCCCCCC[N+](C)(C)CCOc1ccccc1.[Br-]
Measure: solubility (mole fraction)
Result: 0.169

====

# Condition Notes: in n-propanol, 303.15 K
Measure: solubility (mole fraction)

Entry Smiles: CCCCCCCCCCCC[N+](C)(C)CCOc1ccccc1.[Br-]
Result: 0.181

====

# Condition Notes: in isopropanol, 303.15 K

Entry Smiles: CCCCCCCCCCCC[N+](C)(C)CCOc1ccccc1.[Br-]
solubility (mole fraction): 0.139
